System: Hepatitis C virus
Method: Antiviral activity against HCV genotype 2a infected in HuH7.5-FGR-JC1_Rluc2A cells by […]
Type: functional, Hepacivirus hominis
pEC50: −log10 of the molar value.

Molecule	Tested system	pEC50
O=[N+]([O-])c1ccc(-c2cc3c(n2Cc2ccccc2)CCCC3)cc1	Hepatitis C virus	5.14
Br.CC(=O)[C@]12CCN(Cc3ccccc3)C[C@H]1[C@H](c1ccccc1)NC2 (racemic)	Hepatitis C virus	4.76
CCn1cc(-c2ccccc2)c(C(N)=O)c1C	Hepatitis C virus	4.63
O=C(O)C1CC(=O)N(CCc2c[nH]c3ccccc23)C1 (stereo not given)	Hepatitis C virus	4.31
Cc1cccc(N2CC(c3nc4ccccc4[nH]3)CC2=O)c1 (stereo not given)	Hepatitis C virus	4.76
O=C1CC(c2nc3ccccc3[nH]2)CN1Cc1ccccc1 (stereo not given)	Hepatitis C virus	4.68
CC1CN(C(=O)c2ccccc2)c2ccccc2NC1=O (stereo not given)	Hepatitis C virus	4.85
CC(C)(C)OC(=O)N1CC(=O)[C@]2(C)CCN(Cc3ccccc3)[C@@H]2C1 (relative stereo)	Hepatitis C virus	5.22
COc1ccc(NS(=O)(=O)c2ccc(CN3C(=O)c4ccccc4C3=O)cc2)cc1	Hepatitis C virus	4.65
Cc1nc2c(c(C)nn2-c2ccccc2)c(C)c1CCC(=O)O	Hepatitis C virus	4.93

* * *

Method: Inhibition of HCV Con1 genotype 1b C-terminal His-tagged NS3 helicase lacking N-terminal protease using ATP/RNA as substrate after 15 mins by malachite green-based assy
Parameters: species or system Hepatitis C virus (isolate Con1)

Chemical string	IC50
O=[N+]([O-])c1ccc(-c2cc3c(n2Cc2ccccc2)CCCC3)cc1	> 1000 µM
COc1ccc(-c2cc3c(n2Cc2ccccc2)CCCC3)cc1	> 1000 µM
c1ccc(Cn2c(-c3ccccc3)cc3c2CCCC3)cc1	> 1000 µM
Nc1ccc(-c2cc3c(n2Cc2ccccc2)CCCC3)cc1	417 µM
Fc1ccc(-n2c(-c3ccccc3)cc3c2CCCC3)cc1	> 1000 µM

* * *

Quick list: EC50 per entry.
Test system: Hepatitis C virus
Method: Antiviral activity against HCV genotype 2a infected in HuH7.5-FGR-JC1_Rluc2A cells by […]
Format: functional, Hepacivirus hominis

Compound	EC50
Nc1ccc(-c2cc3c(n2Cc2ccccc2)CCCC3)cc1	8.7 µM
O=C1CC(c2nc3ccccc3[nH]2)CN1C1CCCCC1 (stereo unspecified)	15.6 µM
CCOC(=O)C(C)n1c(-c2ccccc2)cc2c1CCCC2 (racemic)	13.7 µM
CC(C(N)=O)n1c(-c2ccccc2)cc2c1CCCC2 (stereo unspecified)	15.4 µM
CCn1cc(C(=O)Nc2ccccc2C(N)=O)c(=O)c2cc(OC)ccc21	20.6 µM
COC(=O)c1cc(C(=O)O)cc(-c2cc3c(n2Cc2ccccc2)CCCC3)c1	9.9 µM
CCOC(=O)[C@@H](C)N1C(=O)C(=O)c2ccccc21	7.3 µM
Oc1ccccc1-c1cc2c(n1Cc1ccccc1)CCCC2	6.5 µM
COc1ccc(-c2cc3c(n2Cc2ccccc2)CCCC3)cc1	4.9 µM
Br.CC(=O)N[C@]12CCN(Cc3ccccc3)C[C@H]1[C@H](c1ccccc1)NC2 (racemic)	4.9 µM
O=C(O)C1CCCN(S(=O)(=O)c2ccccc2)C1 (racemic)	28.1 µM

* * *

Test system: Hepatitis C virus
Method: Antiviral activity against HCV genotype 1b infected in HuH7/Rep-Feo1b cells at 50 uM by firefly luciferase reporter gene assay
Assay type: functional, Hepacivirus hominis
Experimental setup: Huh-7
Measured inhibition at 50 µM accompanies every entry in the list below.
Outcome measure: inhibition at 50 µM (%)

Compound	Value observed
O=[N+]([O-])c1ccc(-c2cc3c(n2Cc2ccccc2)CCCC3)cc1	75
NC(=O)Cn1c(-c2ccccc2)cc2c1CCCC2	37
Cc1ccc(CN(Cc2cc3cc(C)ccc3[nH]c2=O)C(=O)c2ccc(CN3CCN(C)CC3)cc2)cc1	92
CC(C)(C)OC(=O)N1CC(=O)[C@]2(C)CCN(Cc3ccccc3)[C@@H]2C1 (relative stereo)	73
COc1ccc(CN2CC(C)n3c(nc4cccnc43)C2=O)c(OC)c1 (racemic)	45
CC1CN(C(=O)c2ccccc2)c2ccccc2NC1=O (stereo not drawn)	21
COC(=O)c1cc(C(=O)O)cc(-c2cc3c(n2Cc2ccccc2)CCCC3)c1	81
Oc1ccccc1-c1cc2c(n1Cc1ccccc1)CCCC2	96
CCn1cc(C(=O)Nc2ccccc2C(N)=O)c(=O)c2cc(OC)ccc21	17
CC1(CO)CCN2CCCCC21 (racemic)	50
Cc1ccc2[nH]c(=O)c(CN(CCc3ccccc3)C(=O)c3ccc(OCCN(C)C)cc3)cc2c1	45
CCOC(=O)[C@@H](C)N1C(=O)C(=O)c2ccccc21	19
Cc1ccc2[nH]c(=O)c(CN(Cc3ccc(F)cc3)C(=O)c3ccc(NC(=N)N)cc3)cc2c1	54
C=CCn1c(-c2ccccc2)cc2c1CCCC2	35
O=C1CC(c2nc3ccccc3[nH]2)CN1C1CCCCC1 (stereo not drawn)	19
O=C(O)CCn1c(-c2ccccc2)cc2ccccc21	26
COc1ccc(NS(=O)(=O)c2ccc(CN3C(=O)c4ccccc4C3=O)cc2)cc1	39
COc1ccc(-c2cc3c(n2Cc2ccccc2)CCCC3)cc1	99
Nc1ccc(-c2cc3c(n2Cc2ccccc2)CCCC3)cc1	66
COc1cccc(C(=O)Nc2cc(C)nc3ccc(C)cc23)c1	88
CCOC(=O)C(C)n1c(-c2ccccc2)cc2c1CCCC2 (racemic)	74
c1ccc(Cn2c(-c3cccnc3)cc3c2CCCC3)cc1	92
Cc1cccc(N2CC(c3nc4ccccc4[nH]3)CC2=O)c1 (stereo not drawn)	21
